- System: FLO-1 (Esophageal Adenocarcinoma)
- Experiment notes: combination Emax (second highest fraction inhibited in the dose matrix, 72 h); higher = more inhibition; extreme values may be limits of the assay
Quantity measured: combination Emax
# answer = number (no unit)

Challenge: # combination Emax lookup, item CC1(C)CCC(CN2CCN(c3ccc(C(=O)NS(=O)(=O)c4ccc(NCC5CCOCC5)c([N+](=O)[O-])c4)c(Oc4cnc5[nH]ccc5c4)c3)CC2)=C(c2ccc(Cl)cc2)C1 [Venetoclax] + CCN(CCO)CCCOc1ccc2c(Nc3cc(CC(=O)Nc4cccc(F)c4)[nH]n3)ncnc2c1 [AZD2811] (first compound max 1 µM, 7x7, partner max 1 µM)
Response given: 0.359

Challenge: Endpoint output: combination Emax of Cc1c2c(nn1C)CSCc1cc(n(C)n1)CSc1cc(c3ccccc3c1)OCCCc1c(C(=O)O)n(C)c3c-2c(Cl)ccc13 [AZD5991] + C[C@@H]1COCCN1C2=NC(=NC(=C2)C3(CC3)[S@](=N)(=O)C)C4=C5C=CNC5=NC=C4 [AZD6738] (first compound max 1 µM, 7x7, partner max 10 µM) . Value?
Response given: 0.686

Challenge: Look at this compound and give its reported combination Emax. CC1(C)CCC(CN2CCN(c3ccc(C(=O)NS(=O)(=O)c4ccc(NCC5CCOCC5)c([N+](=O)[O-])c4)c(Oc4cnc5[nH]ccc5c4)c3)CC2)=C(c2ccc(Cl)cc2)C1 [Venetoclax] + CS(=O)(=O)CCNCc1ccc(-c2ccc3ncnc(Nc4ccc(OCc5cccc(F)c5)c(Cl)c4)c3c2)o1 [Lapatinib] (first compound max 1 µM, 7x7, partner max 10 µM)
Response given: 0.318

Challenge: # input compound: CC1(C)CCC(CN2CCN(c3ccc(C(=O)NS(=O)(=O)c4ccc(NCC5CCOCC5)c([N+](=O)[O-])c4)c(Oc4cnc5[nH]ccc5c4)c3)CC2)=C(c2ccc(Cl)cc2)C1 [Venetoclax] + COc1cc(Nc2ncc3c(n2)-c2ccc(Cl)cc2C(c2c(F)cccc2OC)=NC3)ccc1C(=O)O [Alisertib] (first compound max 1 µM, 7x7, partner max 10 µM) ; wanted: its combination Emax
Response given: 0.514

Challenge: What does the record list as combination Emax for Cc1c2c(nn1C)CSCc1cc(n(C)n1)CSc1cc(c3ccccc3c1)OCCCc1c(C(=O)O)n(C)c3c-2c(Cl)ccc13 [AZD5991] + C1CN(CCC1(C(=O)N[C@@H](CCO)C2=CC=C(C=C2)Cl)N)C3=NC=NC4=C3C=CN4 [Capivasertib] (first compound max 1 µM, 7x7, partner max 3 µM) ?
Response given: 0.347

Challenge: Dear colleague, I am looking for the recorded combination Emax of the following compound: CN(CCO)CC[C@H](CSc1ccccc1)Nc1ccc(S(=O)(=O)NC(=O)c2ccc(N3CCC([C@@H](O)c4ccccc4-c4ccc(Cl)cc4)CC3)cc2)cc1S(=O)(=O)C(F)(F)F [AZD4320] + C1CN(CCC1(C(=O)N[C@@H](CCO)C2=CC=C(C=C2)Cl)N)C3=NC=NC4=C3C=CN4 [Capivasertib] (first compound max 1 µM, 7x7, partner max 3 µM)
Response given: 0.343

Challenge: May I ask what combination Emax has been recorded for CN(CCO)CC[C@H](CSc1ccccc1)Nc1ccc(S(=O)(=O)NC(=O)c2ccc(N3CCC([C@@H](O)c4ccccc4-c4ccc(Cl)cc4)CC3)cc2)cc1S(=O)(=O)C(F)(F)F [AZD4320] + C[C@@H](Nc1cc(F)cc(F)c1)c1cc(C(=O)N(C)C)cc2c(=O)cc(N3CCOCC3)oc12 [AZD8186] (first compound max 1 µM, 7x7, partner max 3 µM) ?
Response given: 0.486

Challenge: Record request: combination Emax value, item O=C(c1cc(Cc2n[nH]c(=O)c3ccccc23)ccc1F)N1CCN(C(=O)C2CC2)CC1 [Olaparib] + CC1(C)CCC(CN2CCN(c3ccc(C(=O)NS(=O)(=O)c4ccc(NCC5CCOCC5)c([N+](=O)[O-])c4)c(Oc4cnc5[nH]ccc5c4)c3)CC2)=C(c2ccc(Cl)cc2)C1 [Venetoclax] (first compound max 10 µM, 7x7, partner max 1 µM)
Response given: 0.209

Challenge: What does the data say about its combination Emax? Entry: Cc1c2c(nn1C)CSCc1cc(n(C)n1)CSc1cc(c3ccccc3c1)OCCCc1c(C(=O)O)n(C)c3c-2c(Cl)ccc13 [AZD5991] + CN(C)CCCOc1ccc(-c2ccc3ncc4c(c3c2)n(C2CCOCC2)c(=O)n4C)cn1 [AZD0156] (first compound max 1 µM, 7x7, partner max 1 µM)
Response given: 0.36

Challenge: Endpoint output: combination Emax of COc1cccc(OCCCN)c1-c1cc(Nc2cnc(C#N)cn2)n[nH]1 [Prexasertib] + CN(C)CCCOc1ccc(-c2ccc3ncc4c(c3c2)n(C2CCOCC2)c(=O)n4C)cn1 [AZD0156] (first compound max 1 µM, 7x7, partner max 1 µM) . Value?
Response given: 0.724

Challenge: Entry Cc1nc(Nc2ncc(C(=O)Nc3c(C)cccc3Cl)s2)cc(N2CCN(CCO)CC2)n1 [Dasatinib] + CC(=O)Nc1cccc(-n2c(=O)n(C3CC3)c(=O)c3c(Nc4ccc(I)cc4F)n(C)c(=O)c(C)c32)c1 [Trametinib] (first compound max 2 µM, 7x7, partner max 1 µM) has what combination Emax?
Response given: 0.966

Challenge: combination Emax lookup needed for Cn1cnc2c(F)c(Nc3ccc(Br)cc3Cl)c(C(=O)NOCCO)cc21 [Selumetinib] + C[C@@H]1COCCN1C2=NC(=NC(=C2)C3(CC3)[S@](=N)(=O)C)C4=C5C=CNC5=NC=C4 [AZD6738] (first compound max 10 µM, 7x7, partner max 10 µM) , thanks.
Response given: 0.635
